Tested on: SN12C renal
Experiment: NCI tumour cell line growth inhibition, 48 h
observed property: TGI (µM)
Write down the numeric answer in µM and omit the unit.

Q. Test system SN12C renal; read-out TGI; what value for CC(C)(CN1CCCCC1)C(=O)CC(SCCS(=O)(=O)O)c1ccccc1 (stereo not given) ?
A. 58.6

Q. Then O=C(NCCCN1CCN(CCCNC(=O)c2cc(-c3ccccc3)nc3ccccc23)CC1)c1cc(-c2ccccc2)nc2ccccc12 ?
A. 43

Q. Then CCN(CC)CCC(=O)Nc1ccc2sc3ccccc3c(=O)c2n1 ?
A. 77.8

Q. Then COc1cc2c(c(OC)c1)C(=O)C(=O)C(CC1(C)OCCCO1)=C2 ?
A. 26.8

Data provenance: PubChem BioAssay (NCI)
